- SYSTEM NAME: Substance-K receptor (Oryctolagus cuniculus)
- Sequence (whole entry): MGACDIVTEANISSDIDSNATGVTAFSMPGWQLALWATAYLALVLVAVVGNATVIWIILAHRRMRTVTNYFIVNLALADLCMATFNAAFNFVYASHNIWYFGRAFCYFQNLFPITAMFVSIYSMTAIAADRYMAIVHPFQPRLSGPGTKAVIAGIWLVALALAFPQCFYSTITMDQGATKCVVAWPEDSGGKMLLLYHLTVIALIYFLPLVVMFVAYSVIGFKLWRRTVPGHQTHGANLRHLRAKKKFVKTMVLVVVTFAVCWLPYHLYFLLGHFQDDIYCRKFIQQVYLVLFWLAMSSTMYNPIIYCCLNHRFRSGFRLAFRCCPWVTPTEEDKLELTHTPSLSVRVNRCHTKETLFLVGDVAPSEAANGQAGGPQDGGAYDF
- ASSAY NAME: Compound was tested for its antagonistic activity against tachykinin NK2 receptor in isolated rabbit pulmonary artery (RPA).
- Type: functional
OUTCOME MEASURE: pKB
In your answer, state the number alone without any accompanying words.

- SMILES ENTRY: "CC(C)[C@H](NC(=O)[C@H](Cc1c[nH]c2ccccc12)NC(=O)[C@H](Cc1ccc(O)cc1)NC(=O)[C@@H](N)CC(=O)O)C(=O)N[C@H](Cc1c[nH]c2ccccc12)C(=O)N[C@@H](Cc1c[nH]c2ccccc12)C(=O)N[C@@H](CCCCN)C(N)=O"
  OUTCOME MEASURE: "pKB"
  MEAS VALUE: 8.1

Below: the item to evaluate.
Given the entry CC(C)[C@H](NC(=O)[C@H](Cc1c[nH]c2ccccc12)NC(=O)[C@H](Cc1ccc(O)cc1)NC(=O)[C@H](CC(=O)O)NC(=O)[C@@H](N)Cc1ccc(O[C@@H]2O[C@H](CO)[C@@H](O)[C@H](O)[C@H]2O)cc1)C(=O)N[C@@H](Cc1c[nH]c2ccccc12)C(=O)N[C@H](Cc1c[nH]c2ccccc12)C(=O)N[C@@H](CCCCN)C(N)=O , report its measured pKB.
7.2

Numbers sourced from ChEMBL document CHEMBL1150464.
